Species: Rattus norvegicus
PROTOCOL_SUMMARY: Open TG-GATES - Regimen: Daily Repeat
Type: toxicity, organism-based, Sprague-Dawley
Parameters: regimen Daily Repeat, gender Male, age 6 weeks
CONDITION_INFO: in vivo, po, 1000 mg/kg, […], tissue Liver, route gavage, dose level High, time 28 day
PROPERTY: LIVER
Could you give the number and then its unit, please?

Q: // query LIVER value for entry CNC(=C[N+](=O)[O-])NCCSCc1ccc(CN(C)C)o1 [RANITIDINE]
Result: 15.4 g

Q: Please give the measured LIVER for this molecule: Cc1nnc2n1-c1ccc(Cl)cc1C(c1ccccc1Cl)=NC2 [TRIAZOLAM]
Result: 15.2 g

Q: // LIVER lookup, key: COC(=O)C1=C(C)NC(C)=C(C(=O)OC)C1c1ccccc1[N+](=O)[O-] [NIFEDIPINE]
Result: 17.5 g

====

Organism: Rattus norvegicus
PROTOCOL_SUMMARY: Open TG-GATES - Regimen: Single
Format: toxicity, organism-based, Sprague-Dawley
Set-up: regimen Single, gender Male, age 6 weeks
CONDITION_INFO: in vivo, po, 300 mg/kg, 6 h, tissue Plasma, route gavage, dose level Middle
PROPERTY: K (meq/L)
Value expressed in meq/L; do not type the unit.

Q: Entry under review: O=C(OC[C@H]1O[C@@H](OC(=O)c2cc(O)c(O)c(OC(=O)c3cc(O)c(O)c(O)c3)c2)[C@H](OC(=O)c2cc(O)c(O)c(OC(=O)c3cc(O)c(O)c(O)c3)c2)[C@@H](OC(=O)c2cc(O)c(O)c(OC(=O)c3cc(O)c(O)c(O)c3)c2)[C@@H]1OC(=O)c1cc(O)c(O)c(OC(=O)c2cc(O)c(O)c(O)c2)c1)c1cc(O)c(O)c(OC(=O)c2cc(O)c(O)c(O)c2)c1 . Reported K?
Result: 4.8

Q: I am curious: what K value has been reported for CNC(=C[N+](=O)[O-])NCCSCc1ccc(CN(C)C)o1 ?
Result: 3.8

Q: Which K is listed for COC(=O)C1=C(C)NC(C)=C(C(=O)OC)C1c1ccccc1[N+](=O)[O-] ?
Result: 5.1

Q: I have this compound here, CN/C(=N/CCSCc1nc[nH]c1C)NC#N , and I need its recorded K.
Result: 3.8

Q: Need K, item Cc1nnc2n1-c1ccc(Cl)cc1C(c1ccccc1Cl)=NC2
Result: 4.1

====

Species: Rattus norvegicus
PROTOCOL_SUMMARY: Open TG-GATES - Regimen: Single
Type: toxicity, organism-based, Sprague-Dawley
Set-up: regimen Single, gender Male, age 6 weeks
CONDITION_INFO: in vivo, po, 0 mg/kg, 9 h, tissue Blood, route gavage, dose level Control
PROPERTY: Hb (g/dL)
Lab book: enter the figure in g/dL, no units written.

Q: Return reported Hb; argument: CC(C)NNC(=O)c1ccncc1
Result: 12.9

Q: Reported Hb for CN/C(=N/CCSCc1nc[nH]c1C)NC#N : what is it?
Result: 13.1

Q: # input compound: CN1C(=O)CCS(=O)(=O)C1c1ccc(Cl)cc1 (stereo not drawn) ; wanted: its Hb
Result: 13.4

====

Species on record: Rattus norvegicus
PROTOCOL_SUMMARY: Open TG-GATES - Regimen: Daily Repeat
Type: toxicity, organism-based, Sprague-Dawley
Set-up: regimen Daily Repeat, gender Male, age 6 weeks
CONDITION_INFO: in vivo, po, 1000 mg/kg, […], tissue Blood, route gavage, dose level High, time 14 day
PROPERTY: MCV (fL)
Give just the number in fL; leave the unit off.

Q: Value lookup for MCV; key = COC(=O)C1=C(C)NC(C)=C(C(=O)OC)C1c1ccccc1[N+](=O)[O-]
Result: 61.4

Q: Which MCV is listed for CN/C(=N/CCSCc1nc[nH]c1C)NC#N ?
Result: 59.7

Q: Value lookup for MCV; key = Cc1nnc2n1-c1ccc(Cl)cc1C(c1ccccc1Cl)=NC2
Result: 61.2

Q: For the molecule CCOc1ccc(NC(C)=O)cc1 , what MCV is on record?
Result: 78.4

Q: Entry CNC(=C[N+](=O)[O-])NCCSCc1ccc(CN(C)C)o1 has what MCV?
Result: 58.7

Q: So what's the measured MCV for this one? O=C(OC[C@H]1O[C@@H](OC(=O)c2cc(O)c(O)c(OC(=O)c3cc(O)c(O)c(O)c3)c2)[C@H](OC(=O)c2cc(O)c(O)c(OC(=O)c3cc(O)c(O)c(O)c3)c2)[C@@H](OC(=O)c2cc(O)c(O)c(OC(=O)c3cc(O)c(O)c(O)c3)c2)[C@@H]1OC(=O)c1cc(O)c(O)c(OC(=O)c2cc(O)c(O)c(O)c2)c1)c1cc(O)c(O)c(OC(=O)c2cc(O)c(O)c(O)c2)c1
Result: 61.3

====

For each entry below, report its Ret value.
Organism: Rattus norvegicus
PROTOCOL_SUMMARY: Open TG-GATES - Regimen: Daily Repeat
Assay type: toxicity, organism-based, Sprague-Dawley
Design: regimen Daily Repeat, gender Male, age 6 weeks
CONDITION_INFO: in vivo, po, 0 mg/kg, […], tissue Blood, route gavage, dose level Control, time 28 day
The response must be a number in % with no trailing unit.

Q: What Ret value was documented for this compound, Brc1ccccc1 [BROMOBENZENE] ?
Result: 2.4

Q: Look up Ret for this compound: CC(C)NNC(=O)c1ccncc1 [IPRONIAZID]
Result: 3

Q: Please give the measured Ret for this compound: CN(C)CCC(c1ccc(Cl)cc1)c1ccccn1 (stereo not drawn) [CHLORPHENIRAMINE]
Result: 2.5

Q: What value of Ret has been recorded for this entry: CNC(=C[N+](=O)[O-])NCCSCc1ccc(CN(C)C)o1 [RANITIDINE]
Result: 2

Q: Returns the measured Ret for the input compound. Input: COC(=O)C1=C(C)NC(C)=C(C(=O)OC)C1c1ccccc1[N+](=O)[O-] [NIFEDIPINE]
Result: 7.5

Q: Name the reported Ret value associated with the compound CN/C(=N/CCSCc1nc[nH]c1C)NC#N [CIMETIDINE]
Result: 2.6

Q: Looking for the measured Ret of CCOc1ccc(NC(C)=O)cc1 [PHENACETIN] , can you help?
Result: 2.6

Q: For CCCc1cc(=O)[nH]c(=S)[nH]1 [PROPYLTHIOURACIL] , what is its reported Ret?
Result: 2.8

Q: Value lookup for Ret; key = CN1C(=O)CCS(=O)(=O)C1c1ccc(Cl)cc1 (stereo not drawn) [CHLORMEZANONE]
Result: 2.6

Q: Please report the recorded Ret for Nc1c2c(nc3ccccc13)CCCC2 [TACRINE] .
Result: 2.9

Q: Report Ret for Cc1nnc2n1-c1ccc(Cl)cc1C(c1ccccc1Cl)=NC2 [TRIAZOLAM] please.
Result: 2.1

Q: Form field: reported Ret of O=C(OC[C@H]1O[C@@H](OC(=O)c2cc(O)c(O)c(OC(=O)c3cc(O)c(O)c(O)c3)c2)[C@H](OC(=O)c2cc(O)c(O)c(OC(=O)c3cc(O)c(O)c(O)c3)c2)[C@@H](OC(=O)c2cc(O)c(O)c(OC(=O)c3cc(O)c(O)c(O)c3)c2)[C@@H]1OC(=O)c1cc(O)c(O)c(OC(=O)c2cc(O)c(O)c(O)c2)c1)c1cc(O)c(O)c(OC(=O)c2cc(O)c(O)c(O)c2)c1 [TANNIC ACID]
Result: 2.8

Q: Endpoint output: Ret of NC1=NC(=O)C(c2ccccc2)O1 (stereo not drawn) [PEMOLINE] . Value?
Result: 2.8

====

Please respond with reported PT for every item in the list.
Organism: Rattus norvegicus
PROTOCOL_SUMMARY: Open TG-GATES - Regimen: Daily Repeat
Assay type: toxicity, organism-based, Sprague-Dawley
Parameters: regimen Daily Repeat, gender Male, age 6 weeks
CONDITION_INFO: in vivo, po, 1000 mg/kg, […], tissue Blood, route gavage, dose level High, time 7 day
State the answer as a number, implicitly in s.

Q: Any idea what PT was measured for CNC(=C[N+](=O)[O-])NCCSCc1ccc(CN(C)C)o1 [RANITIDINE] ?
Result: 12.5

Q: Suppose we examine the compound COC(=O)C1=C(C)NC(C)=C(C(=O)OC)C1c1ccccc1[N+](=O)[O-] [NIFEDIPINE] ; what PT value has been reported?
Result: 14.2

Q: Would you kindly share the measured PT for CCOc1ccc(NC(C)=O)cc1 [PHENACETIN] ?
Result: 13.6

Q: Item under review: O=C(OC[C@H]1O[C@@H](OC(=O)c2cc(O)c(O)c(OC(=O)c3cc(O)c(O)c(O)c3)c2)[C@H](OC(=O)c2cc(O)c(O)c(OC(=O)c3cc(O)c(O)c(O)c3)c2)[C@@H](OC(=O)c2cc(O)c(O)c(OC(=O)c3cc(O)c(O)c(O)c3)c2)[C@@H]1OC(=O)c1cc(O)c(O)c(OC(=O)c2cc(O)c(O)c(O)c2)c1)c1cc(O)c(O)c(OC(=O)c2cc(O)c(O)c(O)c2)c1 [TANNIC ACID] . Reported PT?
Result: 11.3

Q: Endpoint output: PT of CN/C(=N/CCSCc1nc[nH]c1C)NC#N [CIMETIDINE] . Value?
Result: 12.6

Q: Need PT, item Cc1nnc2n1-c1ccc(Cl)cc1C(c1ccccc1Cl)=NC2 [TRIAZOLAM]
Result: 12.8

Attribution: ChEMBL document CHEMBL3885861
